The compounds listed here are annotated with their viability at 24 h, 100 µM.
Assay: Cytotoxicity against HEK293 cells assessed as cell viability at 100 uM after 24 hrs by MTT assay
Type: cell-based
Conditions: human, read-out: Activity
Give the value, in units of %, as a plain number.

Would you please look over these solved cases?
[
  {
    "Compound": "Clc1ccc(C2CC(c3ccccc3)=NN2c2ccc(-c3ccccc3)nn2)cc1 (stereo not drawn)",
    "Value": 91.2
  },
  {
    "Compound": "Clc1ccc(C2=NN(c3ccc(-c4ccccc4)nn3)C(c3ccc(Cl)cc3)C2)cc1 (stereo not drawn)",
    "Value": 81.7
  },
  {
    "Compound": "COc1ccc(C2CC(c3ccccc3)=NN2c2ccc(-c3ccccc3)nn2)c(OC)c1 (stereo not drawn)",
    "Value": 82.9
  },
  {
    "Compound": "Clc1ccc(C2=NN(c3ccc(-c4ccccc4)nn3)C(c3ccccc3)C2)cc1 (stereo not drawn)",
    "Value": 81.6
  },
  {
    "Compound": "Fc1ccc(C2CC(c3ccc(Cl)cc3)=NN2c2ccc(-c3ccccc3)nn2)cc1 (stereo not drawn)",
    "Value": 82.3
  },
  {
    "Compound": "FC(F)(F)c1ccc(C2CC(c3ccccc3)=NN2c2ccc(-c3ccccc3)nn2)cc1 (stereo not drawn)",
    "Value": 86.2
  },
  {
    "Compound": "FC(F)(F)c1ccc(C2CC(c3ccc(Cl)cc3)=NN2c2ccc(-c3ccccc3)nn2)cc1 (stereo not drawn)",
    "Value": 87.7
  }
]

I'd like to know its viability at 24 h, 100 µM. The compound in question is Fc1ccc(C2CC(c3ccccc3)=NN2c2ccc(-c3ccccc3)nn2)cc1 (stereo not drawn)
91.9

====

Test: Cytotoxicity against HEK293 cells assessed as cell viability at 10 uM after 24 hrs by MTT assay
Format: cell-based
Settings: human, read-out: Activity
Measured Quantity: viability at 24 h, 10 µM (%)
# number only, unit % dropped from output

Example entries and their recorded answers appear below.
[
  {
    "Compound": "Fc1ccc(C2CC(c3ccccc3)=NN2c2ccc(-c3ccccc3)nn2)cc1 (stereo not drawn)",
    "Unit Symbol": "%",
    "viability at 24 h, 10 µM": 93.7
  },
  {
    "Compound": "Clc1ccc(C2CC(c3ccccc3)=NN2c2ccc(-c3ccccc3)nn2)cc1 (stereo not drawn)",
    "Unit Symbol": "%",
    "viability at 24 h, 10 µM": 96.6
  }
]

Fill blank: measured viability at 24 h, 10 µM of the compound COc1ccc(C2CC(c3ccccc3)=NN2c2ccc(-c3ccccc3)nn2)c(OC)c1 (stereo not drawn) is ____.
85.2

Values compiled from ChEMBL document CHEMBL3769399.
